- system under test: Calcium-dependent protein kinase 1 (Plasmodium falciparum, UniProt P62344)
- Sequence (P62344 whole entry): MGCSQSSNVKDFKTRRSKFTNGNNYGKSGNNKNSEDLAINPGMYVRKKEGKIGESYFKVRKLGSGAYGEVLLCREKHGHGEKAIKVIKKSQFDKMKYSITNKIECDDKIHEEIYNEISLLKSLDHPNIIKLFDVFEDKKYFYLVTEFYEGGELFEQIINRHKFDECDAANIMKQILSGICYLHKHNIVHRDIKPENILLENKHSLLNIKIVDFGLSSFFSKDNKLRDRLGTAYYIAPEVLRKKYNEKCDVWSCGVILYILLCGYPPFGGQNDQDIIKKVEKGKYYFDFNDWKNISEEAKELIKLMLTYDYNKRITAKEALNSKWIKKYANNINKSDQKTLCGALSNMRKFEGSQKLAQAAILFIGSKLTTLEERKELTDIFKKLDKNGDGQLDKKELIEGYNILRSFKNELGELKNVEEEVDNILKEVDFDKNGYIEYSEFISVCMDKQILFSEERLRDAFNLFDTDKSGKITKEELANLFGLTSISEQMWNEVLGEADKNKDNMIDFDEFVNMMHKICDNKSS
- protocol text: MMV: CDPK1 Protein kinase inhibition assay using recombinant PfCDPK1, syntide 2 peptide substrate, ATP and KinaseGlo to measure % inhibition at 1 uM MMV box compound.
pIC50: −log10 of the molar value.
result type: pIC50

(Q) So what does the record say about pIC50 for O=C(NC1CCCCC1)C(c1cccs1)N(CCc1ccccc1)C(=O)c1ccco1 (stereo unspecified) ?
(A) < 6.00

(Q) And the next one, `COc1cccc(Nc2nc(N)c3ccccc3n2)c1` ?
(A) < 6.00

(Q) Would you mind doing `CCN(CC)CCCNc1ccnc2cc3ccccc3cc12` as well?
(A) < 6.00

(Q) Likewise for `Fc1ccc2[nH]c3c(NCCCN4CCOCC4)ncnc3c2c1` ?
(A) < 6.00

(Q) Queued: `O=C(Nc1ccc(CN2CCOCC2)cc1)c1ccc(-c2ccc(Br)cc2)o1`
(A) < 6.00

(Q) Input `Cc1cccc(-n2ncc3c(O)nc(-n4nc(C)cc4NC(=O)c4cc5ccccc5o4)nc32)c1`
(A) < 6.00

* * *

I'd appreciate it if you could supply IC50 values for the items below.
- system under test: Putative uncharacterized protein pk7 (Plasmodium falciparum, UniProt O96214)
- Sequence (O96214 whole entry): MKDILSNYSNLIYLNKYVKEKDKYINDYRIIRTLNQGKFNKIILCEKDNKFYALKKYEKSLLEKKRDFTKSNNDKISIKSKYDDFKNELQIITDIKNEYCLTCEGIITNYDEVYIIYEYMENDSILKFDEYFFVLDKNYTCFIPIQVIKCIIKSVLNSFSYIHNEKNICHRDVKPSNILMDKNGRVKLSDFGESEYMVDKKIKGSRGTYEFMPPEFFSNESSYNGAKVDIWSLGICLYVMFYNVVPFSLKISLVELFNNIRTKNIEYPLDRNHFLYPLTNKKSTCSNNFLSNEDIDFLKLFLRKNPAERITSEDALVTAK
- protocol text: Final concentrations were 1 uM ATP, 2 mM DTT, 20 mM MgCl2, 2 mM MnCl2, 0.01% BSA, and 6 ug/ml PK7, in a buffer of 20 mM Tris-HCl (pH 7.5). The enzyme itself was the only substrate present (since autophosphorylation occurs); 100 uM 1NA-PP1 was used as a control inhibitor. Incubation time was 3 hours.

(Q) Under Putative uncharacterized protein pk7 (Plasmodium falciparum, UniProt O96214): IC50 value of `COc1ccc(C(=O)Nc2nonc2-c2ccc(OC)c(OC)c2)cc1Cl` ?
(A) > 1000 nM

(Q) Next record, please: COc1ccc(C2=C(c3ccc(OC)cc3)C3(c4ccccc4)C(=O)C2(c2ccccc2)C2C(=O)N(c4ccc(C)cc4)C(=O)C23)cc1 (stereo unspecified)
(A) > 1000 nM

(Q) Continue with CCCCCCOC(=O)C1=C(C)NC(=O)NC1c1ccccc1F (stereo unspecified)
(A) > 1000 nM

(Q) What would you report for `O=C(Nc1ccc(Cl)cc1)N1CCN(c2ccc3nncn3n2)CC1` ?
(A) > 1000 nM

(Q) And what about the compound CC1CC2=C(CC1CNCCCN(C)C)C(C)(C)CCC2 (stereo unspecified) ?
(A) > 1000 nM

(Q) Also check CCOC(=O)C1=C(C)N=c2sc(=Cc3cc(Cl)ccc3O)c(=O)n2C1c1ccc(OC)cc1 (stereo unspecified)
(A) > 1000 nM

(Q) Also OC(CNC1CCCCC1)Cn1c2ccc(I)cc2c2cc(I)ccc21 (stereo unspecified) ?
(A) > 1000 nM

(Q) Same lookup for `CN1CCN(c2ccc(Nc3c4ccccc4nc4ccccc34)cc2)CC1` , please.
(A) > 1000 nM

(Q) Please do the same for O=C(NC1CCCCC1)C(c1cccs1)N(CCc1ccccc1)C(=O)c1ccco1 (stereo unspecified) as well.
(A) > 1000 nM

(Q) Now give it for `COCCNC(=O)c1ccc(OC2CCN(Cc3ccc(F)c(F)c3)CC2)c(Cl)c1` too.
(A) > 1000 nM

(Q) What would you report for CCOc1cc(Cl)c(C(C)NC(=O)c2ccccc2)cc1OCC (stereo unspecified) ?
(A) > 1000 nM

(Q) Entry to check: `O=C(CSc1ccc2nnc(-c3cccc(F)c3)n2n1)Nc1ccc2c(c1)OCO2`
(A) > 1000 nM

(Q) What would you report for `CCN(Cc1ccccc1)C1CCN(Cc2cc(Br)ccc2O)CC1` ?
(A) > 1000 nM

(Q) Further, for `Cc1cc(N(C)C)nc(Nc2ccc(NC(=O)Nc3ccccc3)cc2)n1` ?
(A) > 1000 nM

(Q) Next entry: `Cc1ccc(C)c(-c2csc(Nc3ccc(C)c(C)c3)n2)c1`
(A) > 1000 nM

(Q) Another compound to look at: `CCN(CC)CCNc1ccnc2cc3ccccc3cc12`
(A) > 1000 nM

(Q) Follow-up entry: `Cc1ccc(N2C3c4ccccc4N(S(=O)(=O)c4ccc(C)cc4)C2c2ccccc2N3S(=O)(=O)c2ccc(C)cc2)cc1`
(A) > 1000 nM

(Q) Now consider CC1CN(C(=O)c2sc3ccccc3c2Cl)CC(C)O1 (stereo unspecified) .
(A) > 1000 nM

(Q) Now try `COc1ccccc1N1C(=N)SC(=Cc2ccc(OCc3ccccc3F)cc2)C1=O` .
(A) > 1000 nM

(Q) And what about the compound `COc1ccc(-c2cn3c(C(=O)Nc4ccccc4Cl)c(-c4ccccc4)c4c3n2CCCC4)cc1` ?
(A) > 1000 nM

(Q) And what about the compound `Cc1cc(N2CCCC2)nc(Nc2ccc(NC(=O)CCc3ccccc3)cc2)n1` ?
(A) > 1000 nM
